target: HCMV polymerase (Human cytomegalovirus, UniProt P08546); construct: made in house; host or cells: recombinant baculovirus-infected SF-9 cells; assay: HCMV polymerase scintillation proximity assay (SPA), modified version; format: biochemical; conditions: CMV polymerase; Table 1; modified assay with 4.5 mM DTT, compounds in 100% DMSO; read-out: Antiviral Selective Polymerase IC50 Values, CMV
Sequence (P08546 whole entry): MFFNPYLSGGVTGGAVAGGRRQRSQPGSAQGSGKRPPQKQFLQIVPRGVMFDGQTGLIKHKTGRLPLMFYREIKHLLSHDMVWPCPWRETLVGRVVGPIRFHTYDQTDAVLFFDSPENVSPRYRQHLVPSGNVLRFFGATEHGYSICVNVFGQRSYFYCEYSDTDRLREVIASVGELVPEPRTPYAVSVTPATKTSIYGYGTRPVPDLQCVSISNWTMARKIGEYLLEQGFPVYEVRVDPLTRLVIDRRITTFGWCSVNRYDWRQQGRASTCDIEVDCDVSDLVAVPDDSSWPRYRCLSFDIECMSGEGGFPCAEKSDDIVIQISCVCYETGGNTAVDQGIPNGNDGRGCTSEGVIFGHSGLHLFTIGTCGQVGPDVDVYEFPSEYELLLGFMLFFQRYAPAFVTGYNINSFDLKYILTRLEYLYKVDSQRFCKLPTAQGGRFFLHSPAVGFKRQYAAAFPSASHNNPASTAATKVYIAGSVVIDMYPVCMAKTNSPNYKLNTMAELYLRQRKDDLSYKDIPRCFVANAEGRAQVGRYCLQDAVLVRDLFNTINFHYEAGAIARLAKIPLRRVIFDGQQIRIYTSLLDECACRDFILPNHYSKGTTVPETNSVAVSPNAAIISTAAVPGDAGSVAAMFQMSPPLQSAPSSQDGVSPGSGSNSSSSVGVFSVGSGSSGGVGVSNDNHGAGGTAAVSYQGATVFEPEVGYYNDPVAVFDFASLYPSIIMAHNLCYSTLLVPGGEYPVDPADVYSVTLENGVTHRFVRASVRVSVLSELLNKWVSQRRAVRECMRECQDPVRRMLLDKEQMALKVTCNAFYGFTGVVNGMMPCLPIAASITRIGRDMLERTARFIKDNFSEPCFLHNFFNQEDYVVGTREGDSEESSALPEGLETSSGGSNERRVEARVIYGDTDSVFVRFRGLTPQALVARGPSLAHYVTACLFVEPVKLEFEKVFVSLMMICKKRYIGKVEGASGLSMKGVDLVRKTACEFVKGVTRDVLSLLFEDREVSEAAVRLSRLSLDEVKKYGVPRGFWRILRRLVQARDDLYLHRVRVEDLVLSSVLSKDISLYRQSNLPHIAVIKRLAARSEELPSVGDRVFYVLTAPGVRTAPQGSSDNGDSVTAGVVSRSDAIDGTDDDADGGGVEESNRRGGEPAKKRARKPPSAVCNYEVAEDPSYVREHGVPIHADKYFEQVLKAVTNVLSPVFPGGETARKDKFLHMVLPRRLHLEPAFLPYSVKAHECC
Exercise: for every item that follows, state its recorded IC50.
Be sure to follow the number with its unit.

Determine from records and report IC50 for COC(=O)c1cc(F)c2ncc(C(=O)NCc3ccc(Cl)cc3)c(O)c2c1 11 µM

Determine from records and report IC50 for O=C(NCc1ccc(Cl)cc1)c1cnc2c(F)cc(S(=O)(=O)NCCO)cc2c1O [Example 229] 10.7 µM

Determine from records and report IC50 for O=C(NCc1ccc(Cl)cc1)c1cnc2c(C(F)(F)F)cc(C#CCO)cc2c1O 15 µM
